assay: Pharmacokinetic assay in Balb/c mice (plasma and brain tissue); assay type: in vivo; conditions: male, mouse, po, Plasma, p.o. 5 mg/kg, read-out: Area under curve AUC0-t
Measurement Name: AUC(0-t) (µg·h/mL)
One number for each entry, in µg·h/mL.

### Prompt Would you mind telling me what AUC(0-t) value was observed for O=C(N[C@H]1C[C@H](CCN2CCN(c3cccc(Cl)c3Cl)CC2)C1)c1ccon1 [Example 25A] ?
### Response 3.05

* * *

For each entry below, report its half-life at 1 μM value.
assay: Stability in human liver microsome in vitro; assay type: in vitro ADME; conditions: human liver microsomes, pH 7.4, 1 μM compound, NADPH/UDPGA, read-out: Half life (t1/2)

These recorded examples may help you get a feel for the data.
>  <Molecule>
O=C(N[C@H]1C[C@H](CCN2CCN(c3cccc(Cl)c3Cl)CC2)C1)c1ccon1 [Example 25A]

>  <half-life at 1 μM>
1.5 h

$$$$
>  <Molecule>
O=C(NC1CC(CCN2CCN(c3cccc(Cl)c3Cl)CC2)C1)C1(O)CC1 (stereo not shown)

>  <half-life at 1 μM>
1.55 h

$$$$
>  <Molecule>
O=C(N[C@H]1C[C@H](CCN2CCN(c3cccc(Cl)c3Cl)CC2)C1)C1(O)CC1 [Example 13A]

>  <half-life at 1 μM>
2.31 h

$$$$

Please state, for each entry, its recorded half-life at 1 μM.
1. CN(C)C(=O)N[C@H]1CC[C@H](CCN2CCN(c3cccc(Cl)c3Cl)CC2)CC1 [Cariprazine, reference compound]
2. O=C(N[C@H]1C[C@H](CCN2CCN(c3cccc(Cl)c3Cl)CC2)C1)c1ncco1 [Example 20A]

### Response
1: 1.29 h; 2: 1.77 h

Please state, for each entry, its recorded half-life at 1 μM.
1. CN(C)C(=O)NC1CC(CCN2CCN(c3cccc4sccc34)CC2)C1 (stereo not shown)
2. CC(C)(O)CC(=O)NC1CC(CCN2CCN(c3cccc(Cl)c3Cl)CC2)C1 (stereo not shown)

### Response
["1.27 h", "3.16 h"]
